Tested on: PPARg homodimer (NR concentration 180 nM)
Assay: PBM binding z-score (relative to random genomic background probes); higher = stronger binding; sequences stand for … in GC…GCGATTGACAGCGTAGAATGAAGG
For each of the sequences below, state its PBM binding z-score.
Please give only the number in your answer, with no unit.

Return reported PBM binding z-score; argument: CAGAGTAGGTTATGGGGCATTCAGGCAACGGTGA
1.69

Return reported PBM binding z-score; argument: CATACAGCGTCAGCTAGGCCAGAGTAGGGACGGC
-0.557

Return reported PBM binding z-score; argument: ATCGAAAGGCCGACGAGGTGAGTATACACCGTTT
-0.108

Return reported PBM binding z-score; argument: CCTAGCAGGCCAATCTGGGTCACTAAAGGCTTGA
0.49

Return reported PBM binding z-score; argument: TCGACTAGGTTAGGGGCATTCAGAATGGCGTCGA
0.688

Return reported PBM binding z-score; argument: ATATGTAGGTTAGCTGGGTTCATTCAGACTAGGC
2.07

Return reported PBM binding z-score; argument: CCTACTGGTCCACGAAAGGTCATTGATTCAGTGA
4.11

Return reported PBM binding z-score; argument: AGTCAAAGTTCATCTAGGCAACGTAAGATATGCT
2.59

Return reported PBM binding z-score; argument: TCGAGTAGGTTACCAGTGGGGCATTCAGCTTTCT
0.236
